Reported MIC E. faecium L4001 values are given for each entry in this list.
# System: E. faecium L4001
# Type: cell-based, Enterococcus faecium
# test_context: L4001
*1 amine or outer side, *2 acyl side, *3 side chain or, on linkers, in order; H or OH if unused. Where a SMILES comes first, the peptide text is derived from it. Bridges are numbered along the chain shown (N, C = ends). [ ]: non-standard residue; d: D form. Phe(3R-OH) = O=C([C@@H](N[*:1])[C@H](O[*:3])c1ccccc1)[*:2]; Asn(3S-OH) = NC(=O)[C@@H](O)[C@H](N)C(=O)O; Leu(3R-OH) = CC(C)[C@@H](O)[C@H](N)C(=O)O; d(tBuAla) = CC(C)(C)C[C@@H](N)C(=O)O; Ala(cPr) = N[C@@H](CC1CC1)C(=O)O; tBuAla = CC(C)(C)C[C@H](N)C(=O)O; 3Pal = N[C@@H](Cc1cccnc1)C(=O)O; aThr = C[C@H](O)[C@H](N)C(=O)O; Aic = NC1(C(=O)O)Cc2ccccc2C1
Supply the numeric figure in µg/mL, leaving out any unit text.

# count of solved cases: 4
compound	units_label	meas_value
CC[C@H](C)[C@@H]1NC(=O)[C@@H](CCCNC(=N)N)NC(=O)[C@H](CC(C)C)NC(=O)[C@H]([C@H](O)C(C)C)NC(=O)[C@@H](NC(=O)[C@H](CC(C)C)NC(=O)[C@@H](N)Cc2ccccc2)[C@@H](c2ccccc2)OC(=O)[C@H](CO)NC(=O)[C@H]([C@H](O)C(N)=O)NC(=O)CNC(=O)[C@H]([C@H](C)O)NC1=O [Example 48] (H-FL[Phe(3R-OH)][Leu(3R-OH)]L[dR]I[aThr]G[Asn(3S-OH)]S; ester 3-C)	µg/mL	0.25
CC[C@H](C)[C@@H]1NC(=O)[C@@H](CCCNC(=N)N)NC(=O)[C@H](CC(C)C)NC(=O)[C@H]([C@H](O)C(C)C)NC(=O)[C@@H](NC(=O)[C@H](CC2CC2)NC(=O)[C@H](N)CC(C)C)[C@@H](c2ccccc2)OC(=O)[C@H](CO)NC(=O)[C@H]([C@H](O)C(N)=O)NC(=O)CNC(=O)[C@H]([C@H](C)O)NC1=O.O=C(O)C(F)(F)F.O=C(O)C(F)(F)F [Example 1] (H-[dL][Ala(cPr)][Phe(3R-OH)][Leu(3R-OH)]L[dR]I[aThr]G[Asn(3S-OH)]S; ester 3-C)	µg/mL	0.5
CC[C@H](C)[C@@H]1NC(=O)[C@@H](CCCNC(=N)N)NC(=O)[C@H](CC(C)C)NC(=O)[C@H]([C@H](O)C(C)C)NC(=O)[C@@H](NC(=O)[C@H](CC(C)(C)C)NC(=O)[C@H](N)CC(C)(C)C)[C@@H](c2ccccc2)OC(=O)[C@H](CO)NC(=O)[C@H]([C@H](O)C(N)=O)NC(=O)CNC(=O)[C@H]([C@H](C)O)NC1=O.O=C(O)C(F)(F)F.O=C(O)C(F)(F)F [Example 68] (H-[d(tBuAla)][tBuAla][Phe(3R-OH)][Leu(3R-OH)]L[dR]I[aThr]G[Asn(3S-OH)]S; ester 3-C)	µg/mL	0.5
CC[C@H](C)[C@@H]1NC(=O)[C@@H](CCCNC(=N)N)NC(=O)[C@H](CC(C)C)NC(=O)[C@H]([C@H](O)C(C)C)NC(=O)[C@@H](NC(=O)[C@H](Cc2cccnc2)NC(=O)[C@H](N)CC(C)(C)C)[C@@H](c2ccccc2)OC(=O)[C@H](CO)NC(=O)[C@H]([C@H](O)C(N)=O)NC(=O)CNC(=O)[C@H]([C@H](C)O)NC1=O [Example 69] (H-[d(tBuAla)][3Pal][Phe(3R-OH)][Leu(3R-OH)]L[dR]I[aThr]G[Asn(3S-OH)]S; ester 3-C)	µg/mL	1

What MIC E. faecium L4001 value was documented for this compound, CC[C@H](C)[C@@H]1NC(=O)[C@@H](CCCNC(=N)N)NC(=O)[C@H](CC(C)C)NC(=O)[C@H]([C@H](O)C(C)C)NC(=O)[C@@H](NC(=O)[C@H](CC(C)C)NC(=O)C2(N)Cc3ccccc3C2)[C@@H](c2ccccc2)OC(=O)[C@H](CO)NC(=O)[C@H]([C@H](O)C(N)=O)NC(=O)CNC(=O)[C@H]([C@H](C)O)NC1=O [Example 18] (H-[Aic]L[Phe(3R-OH)][Leu(3R-OH)]L[dR]I[aThr]G[Asn(3S-OH)]S; ester 3-C) ? 1
